assay.name: Half life in Sprague-Dawley rat at 10 mg/kg, iv
Type: ADME, organism-based
measurement.setup: in vivo
reported.endpoint: half-life (h)
Field format: number, assumed h, no unit text.

Specify measured half-life for CNc1ncc(C#Cc2cc(C(=O)Nc3cc(-n4cnc(C)c4)cc(C(F)(F)F)c3)ccc2C)cn1 .
7.5

* * *

Bcr/Abl fusion protein (Homo sapiens, UniProt P00519, T315I) pIC50 data
Notebook: values listed as pIC50 are -log10 of the concentration (mol/L).

Some solved cases for reference:
Cc1cn(-c2cc(NC(=O)c3ccc(C)c(C#Cc4cnc(NCCO)nc4)c3)cc(C(F)(F)F)c2)cn1 7.72
Cc1cn(-c2cc(NC(=O)c3ccc(C)c(C#Cc4cnc(N)nc4)c3)cc(C(F)(F)F)c2)cn1 8.15
Cc1cn(-c2cc(NC(=O)c3ccc(C)c(C#Cc4cnc(NC5CC5)nc4)c3)cc(C(F)(F)F)c2)cn1 8.05
CCNc1ncc(C#Cc2cc(C(=O)Nc3cc(-n4cnc(C)c4)cc(C(F)(F)F)c3)ccc2C)cn1 7.72
Cc1cn(-c2cc(NC(=O)c3ccc(C)c(C#Cc4cnc(NC(C)(C)C)nc4)c3)cc(C(F)(F)F)c2)cn1 7.62

Specify measured pIC50 for Cc1cn(-c2cc(NC(=O)c3ccc(C)c(C#Cc4cnc(Nc5ccccc5)nc4)c3)cc(C(F)(F)F)c2)cn1 .
6.79

Specify measured pIC50 for CNc1ncc(C#Cc2cc(C(=O)Nc3cc(-n4cnc(C)c4)cc(C(F)(F)F)c3)ccc2C)cn1 .
8.22

Specify measured pIC50 for Cc1cn(-c2cc(NC(=O)c3ccc(C)c(C#Cc4cnc(NC(C)C)nc4)c3)cc(C(F)(F)F)c2)cn1 .
6.73

Specify measured pIC50 for Cc1cn(-c2cc(NC(=O)c3ccc(C)c(C#Cc4cnc(NC5CCCCC5)nc4)c3)cc(C(F)(F)F)c2)cn1 .
6.34
